- measurement notes: Solubility of the compound of Formula (1) in various solvents (excess compound, shaking, HPLC)
- Type: physicochemical
- run parameters: organic solvent or mixture, thermodynamic from solid; in Dimethyl sulfoxide; 25° C., 24 hours

{"molecule": "CCCc1nc(C(F)(F)F)ccc1/C=C/C(=O)N[C@H](C)c1cc(F)c(NS(C)(=O)=O)c(F)c1 [compound of Formula (1)]", "solubility at 24 h [mg/mL]": 632}

* * *

- measurement notes: Solubility of the compound of Formula (1) in various solvents (excess compound, shaking, HPLC)
- Format: physicochemical
- run parameters: organic solvent or mixture, thermodynamic from solid; in Polysorbate 80; 25° C., 24 hours
endpoint label: solubility at 24 h (mg/mL)

{"molecule": "CCCc1nc(C(F)(F)F)ccc1/C=C/C(=O)N[C@H](C)c1cc(F)c(NS(C)(=O)=O)c(F)c1 [compound of Formula (1)]", "endpoint label": "solubility at 24 h", "measurement": 11.8}

* * *

- measurement notes: Solubility of the compound of Formula (1) in various solvents (excess compound, shaking, HPLC)
- Assay type: physicochemical
- run parameters: organic solvent or mixture, thermodynamic from solid; in Dimethylacetamide; 25° C., 24 hours

{"compound": "CCCc1nc(C(F)(F)F)ccc1/C=C/C(=O)N[C@H](C)c1cc(F)c(NS(C)(=O)=O)c(F)c1 [compound of Formula (1)]", "unit": "mg/mL", "solubility at 24 h": 80}

* * *

- measurement notes: Solubility of the compound of Formula (1) in various solvents (excess compound, shaking, HPLC)
- Assay type: physicochemical
- run parameters: organic solvent or mixture, thermodynamic from solid; in Ethanol; 25° C., 24 hours

{"molecule": "CCCc1nc(C(F)(F)F)ccc1/C=C/C(=O)N[C@H](C)c1cc(F)c(NS(C)(=O)=O)c(F)c1 [compound of Formula (1)]", "unit": "mg/mL", "solubility at 24 h": 75.3}

* * *

- measurement notes: Solubility of the compound of Formula (1) in various solvents (excess compound, shaking, HPLC)
- Assay type: physicochemical
- run parameters: organic solvent or mixture, thermodynamic from solid; in Caprylocaproyl polyoxyl-8 glycerides; 25° C., 24 hours

{"compound": "CCCc1nc(C(F)(F)F)ccc1/C=C/C(=O)N[C@H](C)c1cc(F)c(NS(C)(=O)=O)c(F)c1 [compound of Formula (1)]", "solubility at 24 h": "46.7 mg/mL"}

* * *

- measurement notes: Solubility of the compound of Formula (1) in various solvents (excess compound, shaking, HPLC)
- Assay type: physicochemical
- run parameters: 25 °C, organic solvent or mixture, thermodynamic from solid; in dimethyl sulfoxide, diethylene glycol monoethyl ether, 2-pyrrolidone and polyethylene glycol (summary of Table 1)

{"smiles str": "CCCc1nc(C(F)(F)F)ccc1/C=C/C(=O)N[C@H](C)c1cc(F)c(NS(C)(=O)=O)c(F)c1", "solubility at 24 h": "≥ 100 mg/mL"}

* * *

- measurement notes: Solubility of the compound of Formula (1) in various solvents (excess compound, shaking, HPLC)
- Assay type: physicochemical
- run parameters: organic solvent or mixture, thermodynamic from solid; in Polyethylene glycol(PEG) 400; 25° C., 24 hours
- Description: An excess amount of the compound of Formula (1) was added to 1 mL of each solvent described in Table 1 below and stirred for 24 hours at 25° C. while shaking at 200 rpm (Shaking incubator, SI 600R, JEIO TECH, Korea). Thereafter, a centrifugation was performed at 10,000 rpm for 10 minutes, and the supernatant was filtered using a membrane filter (0.2 μm), then diluted moderately with methanol and analyzed by HPLC.
endpoint label: solubility at 24 h (mg/mL)

{"smiles str": "CCCc1nc(C(F)(F)F)ccc1/C=C/C(=O)N[C@H](C)c1cc(F)c(NS(C)(=O)=O)c(F)c1", "endpoint label": "solubility at 24 h", "unit": "mg/mL", "measurement": 168}
